The reported numbers originate from the supplement of paper PMC9170038.

- Test system: MS2 coat protein
- Assay Notes: apparent KD of MS2 coat protein; designed switch direction (-1 OFF switch, 1 ON switch): 1; higher = weaker reporter binding
- Details: Eterna round: R95; input ligand: FMN 200 uM
apparent KD of MS2 coat protein values by entry
Field format: number, assumed nM, no unit text.

UUUGGGUGGCUGGAGGAUAUCCUGGUUGUUACAUGAGGAUCACCCAUGUGCCGCGCGGUGCGCUGGGAGAAGGCCGGCGGCCGUU (puzzle: Same State 2) : 28.9
AGCUAUCGAAAACGAUAGCAAAAGCAUGUACAUGAGGAUCACCCAUGUCGUGUACAAGCUUUUUGCUCGUCUUAAAA [Zipper 23 - 5] (puzzle: Sensor for hsa-mir-208a) : 522
GUUAAACAUGAGGAUCACCCAUGUAAUAAUAUGGGAGGAUAUGCGAAAUUAAUUAAUUAAGCAGAAGGCCUAAUUG [Mat - Same State 1 - D98] (puzzle: Same State 1) : 38.3
AGCUAUCGCGUACGAUAGCUGAAGCGUGUACAUGAGGAUCACCCAUGUCAUGUACAAGCUUUUUGCUCGUCUUAUUG [JL-shm-2.28 JL mod] (puzzle: Sensor for hsa-mir-208a) : 249

For the next question, use this sequence.
[ask] What value of apparent KD of MS2 coat protein on MS2 coat protein does GGGCCAGCCUGUGCUGGGCCUUAGCAUGCACAUGAGGAUCACCCAUGUCGUGUACAUGCUUUUUGCUCGUCUUUAAA [Photon Torp-09] (puzzle: Sensor for hsa-mir-208a) have?
[reply] 79.2
